- assay-protocol: Animal pharmacokinetics of gemcitabine
- Assay type: in vivo, swiss mice
- protocol-conditions: male, Swiss, mouse, plasma, intraperitoneal
observed-property: clearance (mL/min/kg)
// return numeric value only (unit: mL/min/kg, not printed)

Report clearance for Nc1ccn([C@@H]2O[C@H](CO)[C@@H](O)C2(F)F)c(=O)n1 please. 3.25

====

- assay-protocol: Animal pharmacokinetics of gemcitabine
- Type: in vivo, swiss mice
- protocol-conditions: male, Swiss, mouse, plasma, intraperitoneal, 100 mg/kg; mice, normal CDA
observed-property: clearance

Which clearance is listed for Nc1ccn([C@@H]2O[C@H](CO)[C@@H](O)C2(F)F)c(=O)n1 ? 12.6 mL/min/kg

src = patent US20130011392A1
